- test.target: LPA1 (Homo sapiens, UniProt Q92633)
- Sequence (Q92633 whole entry): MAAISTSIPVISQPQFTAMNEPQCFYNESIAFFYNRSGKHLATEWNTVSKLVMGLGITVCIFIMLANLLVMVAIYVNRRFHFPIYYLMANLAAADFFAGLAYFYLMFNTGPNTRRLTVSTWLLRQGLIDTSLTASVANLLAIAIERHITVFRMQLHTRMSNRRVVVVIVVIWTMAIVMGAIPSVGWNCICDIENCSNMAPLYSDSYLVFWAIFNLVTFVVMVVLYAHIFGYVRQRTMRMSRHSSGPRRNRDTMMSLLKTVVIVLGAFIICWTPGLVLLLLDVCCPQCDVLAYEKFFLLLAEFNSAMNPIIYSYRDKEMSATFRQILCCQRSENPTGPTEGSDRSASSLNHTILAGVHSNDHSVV
- procedure.details: in vitro cAMP assay using a CHO cell line overexpressing LPA1 receptor
- Assay type: cell-based
- Parameters: GFP; host or cells: CHO-K1, transiently transfected
- details: concentration to reverse 50% of the inhibitory effect of 1 μM 18:1 LPA on forskolin-mediated cAMP production; CHO-K1 overexpressing LPA1
Examples of molecules with documented IC50 follow.
Give the number; nM is assumed, so skip it.

Please review the following examples before continuing.
{"molecule": "Cc1nnn(-c2ccc(-c3ccc(C4(C(=O)O)CC4)cc3)cc2)c1NC(=O)OCc1cccc(F)c1", "IC50, nM": 2150}
{"molecule": "Cc1nnn(-c2ccc(-c3ccc(C4(C(=O)O)CC4)cc3)cc2)c1NC(=O)O[C@H](C)c1ccccc1", "IC50, nM": 18.3}
{"molecule": "Cc1nnn(-c2ccc(-c3ccc(C4(C(=O)O)CC4)cc3)cc2)c1NC(=O)OC(C)c1cccc(F)c1 (stereo not shown)", "IC50, nM": 16}

// recorded IC50 for Cc1nnn(-c2ccc(-c3ccc(C4(C(=O)O)CC4)cc3)cc2)c1NC(=O)NCc1cccc(F)c1 : 2000

---

- test.target: LPA1 (Homo sapiens, UniProt Q92633)
- procedure.details: in vitro cAMP assay using a CHO cell line overexpressing LPA1 receptor
- Format: cell-based
- Parameters: GFP; host or cells: CHO-K1, transiently transfected
- details: concentration to reverse 50% of the inhibitory effect of 1 μM 18:1 LPA on forskolin-mediated cAMP production; CHO-K1 overexpressing LPA1
experimental.readout: IC50 (nM)
Give the quantity in nM, number only.

Short answer for Cc1nnn(-c2ccc(-c3ccc(C4(C(=O)O)CC4)cc3)cc2)c1NC(=O)NCc1ccccn1 : IC50 was 1000

Field IC50 (entry Cc1nnn(-c2ccc(-c3ccc(C4(C(=O)O)CC4)cc3)cc2)c1NC(=O)OCc1ccc(F)cc1 ) reads 3340

# IC50 of CCc1cccc(COC(=O)Nc2c(C)nnn2-c2ccc(-c3ccc(C4(C(=O)O)CC4)cc3)cc2)c1 = 91.2

IC50 for Cc1nnn(-c2ccc(-c3ccc(C4(C(=O)O)CC4)cc3)cc2)c1NC(=O)OCc1ccccc1F is 1490

Sample Cc1nnn(-c2ccc(-c3ccc(C4(C(=O)O)CC4)cc3)cc2)c1NC(=O)NCc1ccc(F)cc1 ; IC50 observed: 3150

IC50 for Cc1nnn(-c2ccc(-c3ccc(C4(C(=O)O)CC4)cc3)cc2)c1NC(=O)OC(C)c1ccc(F)cc1 (centres unmarked) is 93.3

Reported IC50 ( Cc1nnn(-c2ccc(-c3ccc(C4(C(=O)O)CC4)cc3)cc2)c1NC(=O)NCc1ccccc1F ) = 4470

---

List of % inhibition values.
- test.target: LPA1 (Homo sapiens)
- procedure.details: in vitro cAMP assay using a CHO cell line overexpressing LPA1 receptor
- Assay type: cell-based
- Parameters: GFP; host or cells: CHO-K1, transiently transfected
- details: cAMP assay, 1 μM LPA, 100 nM forskolin; test concentration not given

{"compound": "Cc1nnn(-c2ccc(-c3ccc(C4(C(=O)O)CC4)cc3)cc2)c1NC(=O)N[C@@H](C)c1ccccc1", "observed.value": "92.7%"}

Measured % inhibition, Cc1nnn(-c2ccc(-c3ccc(C4(C(=O)O)CC4)cc3)cc2)c1NC(=O)OC(C)c1cccc(F)c1 (stereo not drawn) : 109.8%

Looking up CCc1cccc(COC(=O)Nc2c(C)nnn2-c2ccc(-c3ccc(C4(C(=O)O)CC4)cc3)cc2)c1 , I found its % inhibition recorded as 115.7%

Per the records, this compound ( Cc1nnn(-c2ccc(-c3ccc(C4(C(=O)O)CC4)cc3)cc2)c1NC(=O)NCc1cccc(F)c1 ) has % inhibition equal to 88.1%

Form: compound = Cc1nnn(-c2ccc(-c3ccc(C4(C(=O)O)CC4)cc3)cc2)c1NC(=O)NCc1ccccn1 ; % inhibition = 41.8%

# % inhibition (compound: Cc1nnn(-c2ccc(-c3ccc(C4(C(=O)O)CC4)cc3)cc2)c1NC(=O)NCc1ccc(F)cc1 ) is 40.5%

Record Cc1nnn(-c2ccc(-c3ccc(C4(C(=O)O)CC4)cc3)cc2)c1NC(=O)NC(C)c1ccccc1 (stereo not drawn) , field % inhibition: 83.8%

---

- test.target: LPA1 (Homo sapiens)
- procedure.details: in vitro cAMP assay using a CHO cell line overexpressing LPA1 receptor
- Assay type: cell-based
- Parameters: GFP; host or cells: CHO-K1, transiently transfected
- details: concentration to reverse 50% of the inhibitory effect of 1 μM 18:1 LPA on forskolin-mediated cAMP production; CHO-K1 overexpressing LPA1
experimental.readout: pIC50
Recall that pIC50 is obtained by taking minus log10 of the concentration measured in molar.

These solved cases illustrate the format of a correct answer.
{"compound": "Cc1nnn(-c2ccc(-c3ccc(C4(C(=O)O)CC4)cc3)cc2)c1NC(=O)NC(C)c1ccccc1 (stereo not shown)", "experimental.readout": "pIC50", "observed.value": 6.62}
{"compound": "Cc1nnn(-c2ccc(-c3ccc(C4(C(=O)O)CC4)cc3)cc2)c1NC(=O)N[C@H](C)c1ccccc1", "experimental.readout": "pIC50", "observed.value": 6.62}

The reported pIC50 of the compound Cc1nnn(-c2ccc(-c3ccc(C4(C(=O)O)CC4)cc3)cc2)c1NC(=O)N[C@@H](C)c1ccccc1 was 6.52

Briefly, pIC50 measured for Cc1nnn(-c2ccc(-c3ccc(C4(C(=O)O)CC4)cc3)cc2)c1NC(=O)N[C@H](C)c1ccc(F)cc1 : 6.11

---

Items are presented alongside their recorded % inhibition.
- test.target: LPA1 (Homo sapiens)
- procedure.details: in vitro cAMP assay using a CHO cell line overexpressing LPA1 receptor
- Type: cell-based
- Set-up: GFP; host or cells: CHO-K1, transiently transfected
- details: cAMP assay, 1 μM LPA, 100 nM forskolin; test concentration not given
Give the value, in units of %, as a plain number.

Use the examples below as a reference point.
{"compound": "Cc1nnn(-c2ccc(-c3ccc(C4(C(=O)O)CC4)cc3)cc2)c1NC(=O)N[C@H](C)c1ccc(F)cc1", "% inhibition, %": 102.0}
{"compound": "Cc1nnn(-c2ccc(-c3ccc(C4(C(=O)O)CC4)cc3)cc2)c1NC(=O)NCc1ccccc1F", "% inhibition, %": 49.5}
{"compound": "Cc1nnn(-c2ccc(-c3ccc(C4(C(=O)O)CC4)cc3)cc2)c1NC(=O)OC(C)c1ccc(F)cc1 (centres unmarked)", "% inhibition, %": 102.1}
{"compound": "Cc1nnn(-c2ccc(-c3ccc(C4(C(=O)O)CC4)cc3)cc2)c1NC(=O)OCc1ccccc1F", "% inhibition, %": 81.9}
{"compound": "Cc1nnn(-c2ccc(-c3ccc(C4(C(=O)O)CC4)cc3)cc2)c1NC(=O)OCc1cccc(F)c1", "% inhibition, %": 77.1}

Query Cc1nnn(-c2ccc(-c3ccc(C4(C(=O)O)CC4)cc3)cc2)c1NC(=O)OCc1ccc(F)cc1 yields % inhibition of 58.43

Sample Cc1nnn(-c2ccc(-c3ccc(C4(C(=O)O)CC4)cc3)cc2)c1NC(=O)N[C@H](C)c1ccccc1 ; % inhibition observed: 108.1

Form field % inhibition, entry Cc1nnn(-c2ccc(-c3ccc(C4(C(=O)O)CC4)cc3)cc2)c1NC(=O)O[C@H](C)c1ccccc1 : 111.6

Recorded values, source patent US20240317709A1.
